Source listed as ChEMBL document CHEMBL1150388.

- Procedure Text: AUC (0 to 4 hrs) in mouse at 50 mg/kg, po
- Format: ADME, organism-based
- Design: time < 4 hr, dose 50 mg/kg, route oral
- Condition Notes: plasma
Readout Label: AUC(0-t) at 4 h (µM·h)

[I] O=C(Cc1ccc(F)cc1)NC(=O)Nc1ccc(Oc2ccnc3[nH]ccc23)c(F)c1
[II] Nc1cc(Oc2ccc(NC(=O)NC(=O)Cc3ccc(F)cc3)cc2F)ccn1
In the pair I and II , the larger recorded AUC(0-t) at 4 h belongs to which? Give the chosen item's label as your response. II

====

- Procedure Text: Metabolic stability in mouse liver microsomes at 3 uM after 10 mins
- Format: ADME, Microsome
Readout Label: Rate of metabolism (nmol/min/mg)

Below, each entry is followed by its recorded Rate of metabolism result.
O=C(Cc1ccc(F)cc1)NC(=O)Nc1ccc(Oc2ccnc3[nH]ccc23)c(F)c1 | 0.035
O=C(Cc1ccc(F)cc1)NC(=O)Nc1ccc(Oc2ccnc3[nH]c(-c4cccnc4)cc23)c(F)c1 | 0.036
O=C(Cc1ccc(F)cc1)NC(=O)Nc1ccc(Oc2ccnc3[nH]cc(-c4cccnc4)c23)c(F)c1 | 0.049

[a] Nc1nccc(Oc2ccc(NC(=O)NC(=O)Cc3ccc(F)cc3)cc2F)c1C#Cc1ccccn1
[b] Nc1cc(Oc2ccc(NC(=O)NC(=O)Cc3ccc(F)cc3)cc2F)ccn1
In the pair a and b , the larger recorded Rate of metabolism belongs to which? Give the chosen item's label as your response. a
(a: 0.042 nmol/min/mg, b: 0.018 nmol/min/mg)

====

- Procedure Text: Cmax in mouse at 50 mg/kg, po
- Type: ADME, organism-based
- Design: dose 50 mg/kg, route oral
- Condition Notes: in vivo
Readout Label: Cmax (µM)

O=C(Cc1ccc(F)cc1)NC(=O)Nc1ccc(Oc2ccnc3[nH]ccc23)c(F)c1 | 2.4

[a] O=C(Cc1ccc(F)cc1)NC(=O)Nc1ccc(Oc2ccnc3[nH]c(-c4cccnc4)cc23)c(F)c1
[b] Nc1nccc(Oc2ccc(NC(=O)NC(=O)Cc3ccc(F)cc3)cc2F)c1C#Cc1ccccn1
[c] Nc1cc(Oc2ccc(NC(=O)NC(=O)Cc3ccc(F)cc3)cc2F)ccn1
[d] O=C(Cc1ccc(F)cc1)NC(=O)Nc1ccc(Oc2ccnc3[nH]cc(-c4cccnc4)c23)c(F)c1
Sort (4 compounds) by Cmax: min first. # list labels per requested ordering a, d, c, b

====

Each entry below carries its measured IC50, system: Hepatocyte growth factor receptor (Homo sapiens).
Sequence (P08581 whole entry): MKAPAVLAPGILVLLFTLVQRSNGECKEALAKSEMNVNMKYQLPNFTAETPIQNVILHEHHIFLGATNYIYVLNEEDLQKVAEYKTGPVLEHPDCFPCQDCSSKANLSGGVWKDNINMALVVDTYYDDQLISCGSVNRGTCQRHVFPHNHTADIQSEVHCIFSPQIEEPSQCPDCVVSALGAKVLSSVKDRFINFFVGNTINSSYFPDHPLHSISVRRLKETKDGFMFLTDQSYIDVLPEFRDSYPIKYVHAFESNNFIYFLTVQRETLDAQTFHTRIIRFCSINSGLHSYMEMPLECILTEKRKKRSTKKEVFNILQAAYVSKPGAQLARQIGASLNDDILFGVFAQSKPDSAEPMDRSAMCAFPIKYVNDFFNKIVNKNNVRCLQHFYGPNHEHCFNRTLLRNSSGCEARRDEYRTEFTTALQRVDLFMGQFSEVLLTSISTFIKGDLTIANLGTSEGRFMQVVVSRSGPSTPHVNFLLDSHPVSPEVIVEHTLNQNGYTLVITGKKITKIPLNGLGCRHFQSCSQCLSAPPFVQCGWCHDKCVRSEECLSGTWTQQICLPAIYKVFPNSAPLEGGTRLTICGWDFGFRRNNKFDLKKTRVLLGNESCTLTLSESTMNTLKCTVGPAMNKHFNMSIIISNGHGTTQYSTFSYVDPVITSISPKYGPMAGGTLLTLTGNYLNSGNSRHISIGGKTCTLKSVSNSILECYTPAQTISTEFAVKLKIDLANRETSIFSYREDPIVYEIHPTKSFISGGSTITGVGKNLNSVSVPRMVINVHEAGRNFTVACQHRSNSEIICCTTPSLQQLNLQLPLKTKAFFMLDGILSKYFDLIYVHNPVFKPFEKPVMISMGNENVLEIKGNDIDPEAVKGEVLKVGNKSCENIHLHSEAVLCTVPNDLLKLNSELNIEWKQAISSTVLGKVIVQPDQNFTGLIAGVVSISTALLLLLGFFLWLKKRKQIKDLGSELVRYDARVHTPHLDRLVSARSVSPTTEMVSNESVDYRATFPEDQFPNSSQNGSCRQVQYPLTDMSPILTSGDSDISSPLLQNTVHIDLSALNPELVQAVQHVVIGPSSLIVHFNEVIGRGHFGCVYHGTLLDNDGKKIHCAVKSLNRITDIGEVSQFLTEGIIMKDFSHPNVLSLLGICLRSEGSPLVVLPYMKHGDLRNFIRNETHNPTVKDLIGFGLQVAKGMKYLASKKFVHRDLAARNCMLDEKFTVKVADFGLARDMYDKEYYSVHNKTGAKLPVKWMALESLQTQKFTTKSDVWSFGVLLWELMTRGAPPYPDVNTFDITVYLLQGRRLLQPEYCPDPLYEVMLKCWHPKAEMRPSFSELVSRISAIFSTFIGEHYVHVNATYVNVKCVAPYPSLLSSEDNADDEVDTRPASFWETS
Readout Label: IC50 (nM)

Nc1nccc(Oc2ccc(NC(=O)NC(=O)Cc3ccc(F)cc3)cc2F)c1C#Cc1ccccn1 | 5
Nc1cc(Oc2ccc(NC(=O)CC(=O)Nc3ccc(F)cc3)cc2F)ccn1 | 100

[A] Nc1nc(-c2c[nH]c3nccc(Oc4ccc(NC(=O)NC(=O)Cc5ccc(F)cc5)cc4F)c23)cs1
[B] O=C(Cc1ccc(F)cc1)NC(=O)Nc1ccc(Oc2ccnc3[nH]ccc23)c(F)c1
[C] Nc1nccc(Oc2ccc(NC(=O)NC(=O)Cc3ccc(F)cc3)cc2F)c1C#CCO
Sort (3 compounds) by IC50: min first. # list labels per requested ordering C, A, B

====

- Procedure Text: Protein binding in mouse plasma
- Assay type: ADME, cell-free
- Condition Notes: read-out: PPB (converted)
Readout Label: fraction unbound
Please respond with just the number, no unit label.

Which fraction unbound is listed for Nc1nccc(Oc2ccc(NC(=O)NC(=O)Cc3ccc(F)cc3)cc2F)c1C#Cc1ccccn1 ? 0.0002
